These entries and their values trace back to patent US8093274B2.

- Target desc: GGTase I (substrate K-Ras4B) (Homo sapiens, UniProt P49354+P53609)
- Experiment description: GGTase I filter-binding assay with K-Ras4B as substrate
- Type: biochemical
- Protocol conditions: 50 μM compound; DMSO = 100%; smaller numbers indicate better inhibition; first number of pair; read-out: % activity of GGTase I for protein K-Ras4B in the presence of the compound
Measurement type: activity at 50 µM (%)
The response must be a number in % with no trailing unit.

Report the value of activity at 50 µM obtained on GGTase I (substrate K-Ras4B) (Homo sapiens, UniProt P49354+P53609) for C=CCS[C@H]1[C@@H](C(=O)O)[C@H](c2ccc(Br)cc2)N(S(=O)(=O)c2ccc(C)cc2)[C@@H]1CCC .
9.8

Here is the next item to consider.
Provide activity at 50 µM, system GGTase I (substrate K-Ras4B) (Homo sapiens, UniProt P49354+P53609), entry CC(C)CCS[C@H]1[C@@H](C(=O)O)[C@H](c2ccc(Cl)cc2)N(S(=O)(=O)c2ccccc2)[C@@H]1C(C)C
28.1

* * *

- Target desc: GGTase I (substrate RhoA) (Homo sapiens, UniProt P49354+P53609)
- Experiment description: GGTase I filter-binding assay with RhoA as substrate
- Assay type: biochemical
- Protocol conditions: 50 μM compound; DMSO = 100%; smaller numbers indicate better inhibition; second number of pair; read-out: % activity of GGTase I for protein RhoA in the presence of the compound
Measurement type: activity at 50 µM (%)
Express it in %; write the number only.

Use these answered entries as a reference point.
Identify measured activity at 50 µM associated with Cc1ccc(S(=O)(=O)N2[C@H](CC3CCCC3)[C@@H](SCCC(=O)OC(C)(C)C)[C@@H](C(=O)O)[C@@H]2c2ccc(Cl)c(Cl)c2)cc1
7.3

State its activity at 50 µM for this compound: CCC[C@@H]1[C@@H](SCCC(=O)OC(C)(C)C)[C@@H](C(=O)O)[C@H](c2cccc(F)c2)N1S(=O)(=O)c1ccc(C)cc1
7.8

Answer with the recorded activity at 50 µM for the compound listed here: Cc1ccc(S(=O)(=O)N2C(c3cccc(Br)c3)CC=C(C(=O)O)[C@@H]2c2cccc(Br)c2)cc1 (some centres unmarked)
3.7

Quick one: give measured activity at 50 µM for C=CCS[C@H]1[C@@H](C(=O)O)[C@H](c2ccc(Br)cc2)N(S(=O)(=O)c2ccc(C)cc2)[C@@H]1CCCCCC
5.5

# return recorded activity at 50 µM for entry CCCCCS[C@H]1[C@@H](C(=O)O)[C@H](c2cccc(F)c2)N(S(=O)(=O)c2ccc(C)cc2)[C@@H]1CCCC
7.1

Now look at this one.
Supply measured activity at 50 µM of COc1ccc(S[C@H]2[C@@H](C(=O)O)[C@H](c3ccc(Cl)cc3)N(S(=O)(=O)c3ccc(Cl)cc3)[C@@H]2C(C)C)cc1 in your reply.
8

* * *

- Target desc: GGTase I (substrate K-Ras4B) (Homo sapiens, UniProt P49354+P53609)
- Experiment description: GGTase I filter-binding assay with K-Ras4B as substrate
- Assay type: biochemical
- Protocol conditions: 50 μM compound; DMSO = 100%; smaller numbers indicate better inhibition; first number of pair; read-out: % activity of GGTase I for protein K-Ras4B in the presence of the compound
// criterion not met strictly below 20% in activity at 50 µM; criterion met otherwise

Item CC(C)(C)OC(=O)CCS[C@H]1[C@@H](C(=O)O)[C@H](c2ccc(Cl)cc2)N(S(=O)(=O)c2ccc(Cl)cc2)[C@@H]1CC1CCCC1 with activity at 50 µM of 20% or above?
criterion met

Has COc1ccc(S[C@H]2[C@@H](C(=O)O)[C@H](c3ccc(Cl)cc3)N(S(=O)(=O)c3ccc(Cl)cc3)[C@@H]2C(C)C)cc1 a recorded activity at 50 µM greater than or equal to 20%?
criterion met

Decide: is the reported value of activity at 50 µM for C=CCS[C@H]1[C@@H](C(=O)O)[C@H](c2ccc(Cl)cc2)N(S(=O)(=O)c2ccccc2C)[C@@H]1CCCC equal to or greater than 20%?
criterion met

Form field: activity at 50 µM at least 20%? Entry: C=CCS[C@H]1[C@@H](C(=O)O)[C@H](c2cccc(F)c2)N(S(=O)(=O)c2ccc(C)cc2)[C@@H]1CC1CCCC1
criterion met

Is activity at 50 µM at least 20%? Consider CC(C)(C)OC(=O)CCS[C@H]1[C@@H](C(=O)O)[C@H](c2ccc(Cl)cc2)N(S(=O)(=O)c2ccccc2)[C@@H]1CC1CCCC1
criterion met

// inclusive: activity at 50 µM at least 20%? input: Cc1ccccc1S(=O)(=O)N1[C@H](CC2CCCC2)[C@@H](SCCC(=O)OC(C)(C)C)[C@@H](C(=O)O)[C@@H]1c1ccc(Cl)cc1
criterion not met

Please check the record Cc1ccccc1S(=O)(=O)N1C(c2ccc(Cl)cc2)CC=C(C(=O)O)[C@@H]1c1cccc(F)c1 (stereo partly shown) and state if its activity at 50 µM is at or above 20%.
criterion not met

* * *

- Target desc: GGTase I (substrate K-Ras4B) (Homo sapiens, UniProt P49354+P53609)
- Experiment description: GGTase I filter-binding assay with K-Ras4B as substrate
- Assay type: biochemical
- Protocol conditions: 50 μM compound; DMSO = 100%; smaller numbers indicate better inhibition; first number of pair; read-out: % activity of GGTase I for protein K-Ras4B in the presence of the compound
Below is a list of entries, each paired with its recorded activity at 50 µM value.

Look over these answered cases.
Supply recorded activity at 50 µM for Cc1ccc([C@H]2C(C(=O)O)=CCC(c3ccc(Cl)c(Cl)c3)N2S(=O)(=O)c2ccc(C)cc2)cc1 (some centres unmarked) here.
12.4%

Output measured activity at 50 µM for this item: CCCCCS[C@H]1[C@@H](C(=O)O)[C@H](c2cccc(F)c2)N(S(=O)(=O)c2ccc(C)cc2)[C@@H]1CCCC
23.5%

Return the recorded activity at 50 µM value; entry: Cc1ccc(C2CC=C(C(=O)O)[C@H](c3cccc(Br)c3)N2S(=O)(=O)c2ccc(Cl)cc2)cc1 (some centres unmarked)
8.4%

Name the recorded activity at 50 µM of the compound listed here: Cc1ccc(S(=O)(=O)N2C(c3cccc(Cl)c3)CC=C(C(=O)O)[C@@H]2c2cccc(Br)c2)cc1 (some centres unmarked)
11%

Given the compound CC[C@@H]1[C@@H](Sc2ccc(OC)cc2)[C@@H](C(=O)O)[C@H](c2cccc(Cl)c2)N1S(=O)(=O)c1ccc(C)cc1 , write its reported activity at 50 µM.
25.5%

More entries:
Give me measured activity at 50 µM, please, for this compound: Cc1ccc(S(=O)(=O)N2C(c3cccc(Cl)c3)CC=C(C(=O)O)[C@@H]2c2cccc(Cl)c2)cc1 (some centres unmarked)
43.7%

Please indicate activity at 50 µM recorded for C=CCS[C@H]1[C@@H](C(=O)O)[C@H](c2ccc(Cl)cc2)N(S(=O)(=O)c2ccccc2C)[C@@H]1CCCCCC
24.9%

Read the entry Cc1ccc(S(=O)(=O)N2C(c3ccc(Cl)c(Cl)c3)CC=C(C(=O)O)[C@@H]2c2ccc(Cl)cc2)cc1 (some centres unmarked) and write its reported activity at 50 µM.
17.7%

* * *

- Target desc: GGTase I (substrate RhoA) (Homo sapiens, UniProt P49354+P53609)
- Experiment description: GGTase I filter-binding assay with RhoA as substrate
- Format: biochemical
- Protocol conditions: 50 μM compound; DMSO = 100%; smaller numbers indicate better inhibition; second number of pair; read-out: % activity of GGTase I for protein RhoA in the presence of the compound
Measurement type: activity at 50 µM (%)
Please reply with the bare figure in % and do not write the unit itself.

See these solved cases before continuing.
Give recorded activity at 50 µM. C=CCS[C@H]1[C@@H](C(=O)O)[C@H](c2ccc(OC)c(OC)c2)N(S(=O)(=O)c2ccc(C)cc2)[C@@H]1CCCCCC
8.1

Input Cc1cccc([C@H]2C(C(=O)O)=CCC(c3ccc(Cl)cc3)N2S(=O)(=O)c2ccccc2C)c1 (stereo partly shown) , output reported activity at 50 µM.
12.4

Read the entry C=CCS[C@H]1[C@@H](C(=O)O)[C@H](c2ccc(Cl)c(Cl)c2)N(S(=O)(=O)c2ccc(C)cc2)[C@@H]1CC1CCCC1 and write its reported activity at 50 µM.
8.6

Others:
For the compound Cc1ccccc1S(=O)(=O)N1C(c2ccc(Cl)cc2)CC=C(C(=O)O)[C@@H]1c1ccccc1F (stereo partly shown) , give its reported activity at 50 µM.
4.1

* * *

- Target desc: GGTase I (substrate RhoA) (Homo sapiens, UniProt P49354+P53609)
- Experiment description: GGTase I filter-binding assay with RhoA as substrate
- Format: biochemical
- Protocol conditions: 50 μM compound; DMSO = 100%; smaller numbers indicate better inhibition; second number of pair; read-out: % activity of GGTase I for protein RhoA in the presence of the compound
Measurement type: activity at 50 µM (%)
// note: answer is a bare numeric in %

Some solved entries appear below for comparison.
Query activity at 50 µM for Cc1ccc(C2CC=C(C(=O)O)[C@H](c3cccc(Br)c3)N2S(=O)(=O)c2ccc(Cl)cc2)cc1 (some centres unmarked)
7.4

Answer with the recorded activity at 50 µM for the compound listed here: Cc1ccc(S(=O)(=O)N2C(c3cccc(Br)c3)CC=C(C(=O)O)[C@@H]2c2cccc(F)c2)cc1 (some centres unmarked)
15

Input CCCCCC[C@@H]1[C@@H](Sc2ccc(C)cc2)[C@@H](C(=O)O)[C@H](c2ccc(Cl)c(Cl)c2)N1S(=O)(=O)c1ccc(C)cc1 , output reported activity at 50 µM.
9.2

# return recorded activity at 50 µM for entry CC[C@@H]1[C@@H](SCCC(=O)OC(C)(C)C)[C@@H](C(=O)O)[C@H](c2ccc(Cl)c(Cl)c2)N1S(=O)(=O)c1ccc(C)cc1
7.6

Look up activity at 50 µM of C=CCS[C@H]1[C@@H](C(=O)O)[C@H](c2ccc(Cl)cc2)N(S(=O)(=O)c2ccccc2C)[C@@H]1CCCC and report it.
8.4

Please give the documented activity at 50 µM of C=CCS[C@H]1[C@@H](C(=O)O)[C@H](c2ccc(Cl)cc2)N(S(=O)(=O)c2ccccc2C)[C@@H]1CCCCCC
6

Specify activity at 50 µM for C=CCS[C@H]1[C@@H](C(=O)O)[C@H](c2ccc(Cl)c(Cl)c2)N(S(=O)(=O)c2ccc(C)cc2)[C@@H]1CCCCCC and stop.
6.8

Please report the measured activity at 50 µM for C=CCS[C@H]1[C@@H](C(=O)O)[C@H](c2ccc(Cl)cc2)N(S(=O)(=O)c2ccccc2C)[C@@H]1CCC
8.9

State its activity at 50 µM: O=C(O)C1=CCC(c2ccc(Cl)cc2)N(S(=O)(=O)c2ccc(Cl)cc2)[C@H]1c1cccc(Br)c1 (some centres unmarked)
5

State, in one line, measured activity at 50 µM of Cc1ccccc1S(=O)(=O)N1C(c2ccc(Cl)cc2)CC=C(C(=O)O)[C@@H]1c1ccc(F)cc1 (some centres unmarked)
12.6

Turning now to a further compound:
Quote activity at 50 µM reported for COc1ccc([C@H]2C(C(=O)O)=C[C@@H](C(C)(C)C)N2S(=O)(=O)c2ccc(C)cc2)cc1OC please.
6.1
